The reader will find reported inhibition at 10 µM values listed item by item below.
# TARGET OF ASSAY: human B1R (bradykinin receptor 1) (Homo sapiens)
# Construct: expressed in transfected cells; host or cells: CHO K1 cells
# Sequence (P46663 whole entry): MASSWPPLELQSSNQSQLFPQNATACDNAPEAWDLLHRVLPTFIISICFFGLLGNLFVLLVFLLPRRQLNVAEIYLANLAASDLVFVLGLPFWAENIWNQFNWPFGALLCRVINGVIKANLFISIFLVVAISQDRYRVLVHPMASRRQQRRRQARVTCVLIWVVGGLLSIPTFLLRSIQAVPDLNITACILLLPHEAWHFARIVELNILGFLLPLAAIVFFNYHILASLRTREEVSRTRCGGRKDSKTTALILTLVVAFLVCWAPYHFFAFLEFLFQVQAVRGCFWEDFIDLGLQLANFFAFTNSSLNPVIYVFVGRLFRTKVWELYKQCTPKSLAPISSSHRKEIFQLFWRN
# METHOD SUMMARY: FLIPR Ca2+ assay (Fluo-4) on CHO K1 cells stably transfected with the human B1R gene (hB1R cells): % inhibition at 10 μM / IC50, agonist Lys-Des-Arg9-bradykinin
# Format: cell-based
# RUN PARAMETERS: CHO-K1, human B1R
# Source text: The agonistic or antagonistic action of substances can be quantified on the bradykinin receptor 1 (B1R) of the human and rat species with ectopically expressing cell lines (CHO K1 cells) and with the aid of a Ca^2+-sensitive dyestuff (Fluo-4) in a fluorescent imaging plate reader (FLIPR). […] The agonistic or antagonistic action of substances can be determined on the bradykinin receptor 1 (B1R) of the human and rat species with the following assay. […]

{"MOLECULE": "O=C(N[C@@H]1CCc2ccc(C(=O)N3CCC4(CCC(C(=O)N[C@@H]5CN6CCC5CC6)CC4)CC3)cc21)c1ccccc1Cl [Example H-62]", "inhibition at 10 µM, %": 30}
{"MOLECULE": "O=C(NC1CCc2ccc(C(=O)N3CCC4(CCN(c5ccncc5)CC4)C3)cc21)c1cc(Cl)ccc1Cl (stereo not shown) [IND_CC-245]", "inhibition at 10 µM, %": 100}
{"MOLECULE": "O=C(NCc1ccccc1Cl)NC1CCc2ccc(C(=O)N3CCC4(CC3)CCN(c3ccncc3)CC4)cc21 (stereo not shown) [Ind_CC-012]", "inhibition at 10 µM, %": 100}
{"MOLECULE": "O=C(NC1CCc2ccc(C(=O)N3CCC4(CCN(C(=O)Cc5ccc(Cl)cc5)CC4)C3)cc21)c1ccccc1Cl (stereo not shown) [IND_CC-577]", "inhibition at 10 µM, %": 21}
{"MOLECULE": "Cc1cc(OC(F)(F)F)ccc1C(=O)N(C)C1CCc2ccc(C(=O)N3CCC4(CC3)CCN(c3ccncc3)CC4)cc21 (stereo not shown) [IND_CC-299]", "inhibition at 10 µM, %": 27}
{"MOLECULE": "O=C(N[C@@H]1CCCc2ccc(C(=O)N3CCC4(CCN(c5ccncc5)CC4)C3)cc21)c1ccccc1Cl [Example H-11]", "inhibition at 10 µM, %": 99}
{"MOLECULE": "O=C(NC1CCc2ccc(C(=O)N3CCC4(CCC(Oc5ccncc5)CC4)CC3)cc21)c1ccccc1Cl (stereo not shown) [Example H-08]", "inhibition at 10 µM, %": 71}

###

# TARGET OF ASSAY: rat B1R (bradykinin receptor 1) (Rattus norvegicus)
# Construct: expressed in transfected cells; host or cells: CHO K1 cells
# Sequence (P97583 whole entry): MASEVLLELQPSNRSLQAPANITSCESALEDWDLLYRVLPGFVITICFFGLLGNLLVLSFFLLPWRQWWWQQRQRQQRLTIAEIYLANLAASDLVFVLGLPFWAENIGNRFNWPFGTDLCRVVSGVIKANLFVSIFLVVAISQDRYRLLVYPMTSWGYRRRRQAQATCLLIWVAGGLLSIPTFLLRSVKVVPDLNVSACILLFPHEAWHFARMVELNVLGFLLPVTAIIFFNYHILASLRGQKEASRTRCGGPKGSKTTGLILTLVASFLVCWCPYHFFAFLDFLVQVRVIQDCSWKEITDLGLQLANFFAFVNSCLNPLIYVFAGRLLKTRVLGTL
# METHOD SUMMARY: FLIPR Ca2+ assay (Fluo-4) on CHO K1 cells stably transfected with the B1R gene of the rat (rB1R cells): % inhibition at 10 μM / IC50, agonist Des-Arg9-bradykinin
# Assay type: cell-based
# RUN PARAMETERS: CHO-K1, rat B1R

{"COMPOUND": "O=C(NC1CCc2ccc(C(=O)N3CCC4(CCN(C(=O)C5CC5)CC4)C3)cc21)c1sccc1Cl (centres unmarked)", "inhibition at 10 µM": "58%"}
{"COMPOUND": "O=C(c1ccc2c(c1)CC[C@H]2N1Cc2cccc(Cl)c2C1=O)N1CCC2(CCN(c3ccncc3)CC2)C1", "inhibition at 10 µM": "105%"}
{"COMPOUND": "O=C(N[C@@H]1CCc2ccc(C(=O)N3CCC4(CCN(c5ccncc5)CC4)C3)cc21)c1ccccc1F", "inhibition at 10 µM": "107%"}
{"COMPOUND": "CC(C)(C)CC(=O)N1CCC2(CC1)CCN(C(=O)c1ccc3c(c1)C(NC(=O)c1ccccc1Cl)CC3)CC2 (centres unmarked)", "inhibition at 10 µM": "96%"}
{"COMPOUND": "Cc1ccc(F)c(C(=O)NC2CCc3ccc(C(=O)N4CCC5(CC4)CCN(c4ccncc4)CC5)cc32)c1Cl (centres unmarked)", "inhibition at 10 µM": "102%"}
{"COMPOUND": "CCC(CC)CN1CCC2(CC1)CCN(C(=O)c1ccc3c(c1)C(NC(=O)c1cc(C(F)(F)F)ccc1Cl)CC3)C2 (centres unmarked)", "inhibition at 10 µM": "88%"}
{"COMPOUND": "O=C(NC1CCc2ccc(C(=O)N3CCC4(CCN(Cc5ccncc5)CC4)CC3)cc21)c1cc(C(F)(F)F)ccc1Cl (centres unmarked)", "inhibition at 10 µM": "74%"}
{"COMPOUND": "CN(C(=O)c1cccc(Cl)c1Cl)C1CCc2ccc(C(=O)N3CCC4(CC3)CCN(c3ccncc3)CC4)cc21 (centres unmarked)", "inhibition at 10 µM": "107%"}
{"COMPOUND": "O=C(N[C@@H]1CCOc2ccc(C(=O)N3CCC4(CC3)CCN(c3ccncc3)CC4)cc21)c1ccccc1Cl", "inhibition at 10 µM": "106%"}
{"COMPOUND": "N#Cc1ccc(CN2CCC3(CC2)CCN(C(=O)c2ccc4c(c2)C(NC(=O)c2cc(C(F)(F)F)ccc2Cl)CC4)CC3)cc1 (centres unmarked)", "inhibition at 10 µM": "78%"}
{"COMPOUND": "O=C(c1ccc2c(c1)[C@H](N1Cc3cccc(Cl)c3C1=O)CCC2)N1CCC2(CCN(c3ccncc3)CC2)C1", "inhibition at 10 µM": "101%"}
{"COMPOUND": "Cc1noc(C)c1CN1CCC2(CC1)CCN(C(=O)c1ccc3c(c1)C(NC(=O)c1cc(C(F)(F)F)ccc1Cl)CC3)CC2 (centres unmarked)", "inhibition at 10 µM": "67%"}
{"COMPOUND": "CN(C(=O)c1ccccc1Cl)C1CCc2ccc(C(=O)N3CCC4(CCN(Cc5cc(F)ccc5F)CC4)C3)cc21 (centres unmarked)", "inhibition at 10 µM": "62%"}
{"COMPOUND": "CN(C(=O)c1ccccc1Cl)C1CCc2ccc(C(=O)N3CCC4(CCN(Cc5ccc(F)cc5F)CC4)C3)cc21 (centres unmarked)", "inhibition at 10 µM": "55%"}

Origin of the recorded values: patent US8455475B2
